- Measurement target: Cytochrome P450 2D6 (Homo sapiens)
- Protocol details: Cytochrome panel assay with activity outcomes
- Experimental parameters: recombinant CYP, pro-luciferin dealkylation, luminescence, p450-cyp2d6; series mostly up to 57.1 µM
- Procedure: The P450 gene superfamily is involved in the metabolism and clearance of xenobiotics. This assay used various human CYP P450 isozymes to measure the dealkylation of various pro-luciferin substrates to luciferin. The luciferin is then measured by luminescence after the addition of a luciferase detection reagent. […] Inhibitors and some substrates limit the production of luciferin, and decrease measured luminescence. […] 8, Detection, 1 sec, ViewLux luminescent read […]
Screen size: about 16,000 compounds; about 2,600 (16%) were called active. Not shown: some 20% with an inconclusive outcome. Calls come from the whole dose curve; as a rule, active = well fitted curve in the direction sought with a large enough effect; inconclusive = small, poorly fitted or top-dose-only effect, or effect the other way; inactive = no such curve, though single readings can be large or run the other way. The list is a sample of the results.
API: response.call in yes for active, no for inactive

Observe how each entry below is paired with its result.
# Compound, Class label
records = [
    ("CCOc1cc(NC(=O)c2ccccc2[N+](=O)[O-])c(OCC)cc1NC(=O)CC(C)C", "no"),
    ("COCCNc1ncnc2ccc(-c3c(C)noc3C)cc12", "no"),
    ("COc1ccccc1NC(=O)Cn1cncc1-c1ccc([N+](=O)[O-])cc1", "no"),
    ("COc1ccc(OC)c(NC(=O)CC(Cc2ccccc2OC)C(=O)O)c1 (configuration not stated)", "no"),
]

Note: attention shifts to another entry.
Query :: Short answer needed: outcome of this test for Cc1cccc(CNc2ncnc3ccc(-c4c(C)noc4C)cc23)c1 ?
Result :: yes

----------
- Measurement target: Cytochrome P450 2D6 (Homo sapiens) (UniProt P10635)
- Sequence (P10635 whole entry, looked up): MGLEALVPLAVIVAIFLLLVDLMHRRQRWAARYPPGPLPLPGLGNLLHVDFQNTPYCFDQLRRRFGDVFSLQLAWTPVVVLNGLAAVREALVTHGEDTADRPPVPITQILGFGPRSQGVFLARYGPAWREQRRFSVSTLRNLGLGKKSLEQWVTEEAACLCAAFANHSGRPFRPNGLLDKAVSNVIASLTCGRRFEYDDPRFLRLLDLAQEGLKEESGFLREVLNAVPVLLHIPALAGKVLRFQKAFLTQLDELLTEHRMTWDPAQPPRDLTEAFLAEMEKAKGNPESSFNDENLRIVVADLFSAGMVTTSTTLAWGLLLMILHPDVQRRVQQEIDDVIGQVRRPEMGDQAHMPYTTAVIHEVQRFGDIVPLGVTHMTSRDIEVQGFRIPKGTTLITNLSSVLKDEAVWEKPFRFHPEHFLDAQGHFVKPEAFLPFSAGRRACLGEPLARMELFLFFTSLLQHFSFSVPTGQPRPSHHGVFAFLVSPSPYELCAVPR
- Protocol details: Cytochrome panel assay with activity outcomes
- Experimental parameters: recombinant CYP, pro-luciferin dealkylation, luminescence, p450-cyp2d6; series mostly up to 57.1 µM
Among all 16,000 compounds or so, about 2,600 (16%) were called active. About 20% were inconclusive and are not listed. Calls follow the shape of the dose curve; as a rule, active = well fitted curve in the direction sought with a large enough effect; inconclusive = small, poorly fitted or top-dose-only effect, or effect the other way; inactive = no such curve, though single readings can be large or run the other way. The list is a sample of the results.
Outcomes you can answer with include only these: label 1 (active), label 0 (inactive)

Query :: Returns: the outcome recorded for O=C(O)Cc1sc(-c2ccc(Cl)cc2)nc1-c1ccccc1 in this assay.
Result :: label 0

Query :: Thanks! And CCc1cccc(N(C)C(N)=Nc2cccc3ccccc23)c1 ?
Result :: label 1

Query :: What would you report for O=C(N/N=C/c1ccccn1)c1ccco1 ?
Result :: label 0

Query :: Then this molecule: FC(F)(F)c1cnc(N2CCC(=NOCc3ccc(Cl)cc3)CC2)c(Cl)c1
Result :: label 0

Query :: Query Cc1cccc(N/C(N)=N/c2nc(C)cc(C)n2)c1 next
Result :: label 1

Query :: Next up: Cc1ccc(C)c(N/C(N)=N/c2nc(C)cc(C)n2)c1
Result :: label 1

----------
- Measurement target: Cytochrome P450 2D6 (Homo sapiens) (UniProt P10635)
- Protocol details: Cytochrome panel assay with activity outcomes
- Experimental parameters: recombinant CYP, pro-luciferin dealkylation, luminescence, p450-cyp2d6; series mostly up to 57.1 µM
- Description: The P450 gene superfamily is involved in the metabolism and clearance of xenobiotics. This assay used various human CYP P450 isozymes to measure the dealkylation of various pro-luciferin substrates to luciferin. The luciferin is then measured by luminescence after the addition of a luciferase detection reagent. […] Inhibitors and some substrates limit the production of luciferin, and decrease measured luminescence. […] 8, Detection, 1 sec, ViewLux luminescent read […]
Out of some 16,000 compounds screened, about 2,600 (16%) were called active. About 20% were inconclusive and are not listed. Calls follow the shape of the dose curve; as a rule, active = well fitted curve in the direction sought with a large enough effect; inconclusive = small, poorly fitted or top-dose-only effect, or effect the other way; inactive = no such curve, though single readings can be large or run the other way. The list is a sample of the results.
Write down the outcome that applies. Available outcomes: True = active, False = inactive

Before answering, review these 3 worked examples.
# Compound, Class label
rows = [
    ("CC(=O)Nc1ccc(S(=O)(=O)N=S(C)C)cc1", "False"),
    ("COc1ccc(O[C@H]2C=C[C@@H](c3ccccc3)O[C@H]2COC(=O)CC/C(C)=N\\O[C@@H](C)CN2CCCc3nc(C)c(C)cc32)cc1", "True"),
    ("O=c1/c(=C\\c2ccc(O)cc2)sc2n1C(c1ccccc1)C(c1ccccc1)=NN=2 (stereo not given)", "False"),
]

Query :: Each compound tested received a call. Report the one for CCCc1cc(=O)oc2cc(OCc3cc(OC)c(OC)c(OC)c3)c(Cl)cc12 .
Result :: False

Query :: Request: COc1ccc(OC)c(NC(=O)[C@H]2CC=CC[C@H]2C(=O)O)c1
Result :: False

Query :: Thanks! And C=CCNC(=O)c1ccc2nc(-c3ccccc3)c(-c3ccccc3)nc2c1 ?
Result :: False

Query :: O=C(N/N=C/c1ccc(Sc2nc3ccccc3s2)c([N+](=O)[O-])c1)c1ccccn1 , same question.
Result :: False

Query :: Next compound up: O=C(Nc1ncc(Cc2cccc(Cl)c2)s1)C1=NCCN1
Result :: False

Query :: Similarly, CCC(=O)Nc1ccc2c(c1)C(=O)c1ccccc1C2=O ?
Result :: True

Query :: Would you mind doing COC(=O)C1=C(C)NC(=O)NC1c1ccsc1 (stereo not given) as well?
Result :: False
